assayOverview: Enzymatic kinetics in vitro, rat liver homogenate
Format: in vitro ADME
testContext: SD, 37 °C, 30 min, 5–200 μM Cbz-dFdC, read-out: Clint, disappearance of Cbz-dFdC

| substanceSmiles | microsomal CLint / µL/min/mg |
| --- | --- |
| O=C(Nc1ccn([C@@H]2O[C@H](CO)[C@@H](O)C2(F)F)c(=O)n1)OCc1ccccc1 | 2170 |

* * *

assayOverview: Plasma pharmacokinetics in vivo
testContext: SD, rat, iv; plasma, after i.v. dFdC 15 mg/kg, rats
Experimental: SD rats (n = 6) were intragastrically administered Cbz-dFdC (22 mg/kg) and intravenously injected with dFdC (15 mg/kg), and 150 μL blood samples were collected from the retro-orbital route in the right eye at 0, 5, 10, 20, and 30 min and at 1, 2, 4, 6, 12, 24, and 48 h, using heparinized tubes. Without delay, the blood was directly centrifuged at 8000× g at 4 °C for 5 min. […]

| substanceSmiles | half-life, h |
| --- | --- |
| Nc1ccn([C@@H]2O[C@H](CO)[C@@H](O)C2(F)F)c(=O)n1 | 10.6 |

* * *

assayOverview: Plasma pharmacokinetics in vivo
testContext: SD, rat, po; plasma analyte after i.g. Cbz-dFdC 22 mg/kg, rats
Measured AUC(0-inf), listed per entry.

| substanceSmiles | AUC(0-inf), ng·h/mL |
| --- | --- |
| Nc1ccn([C@@H]2O[C@H](CO)[C@@H](O)C2(F)F)c(=O)n1 | 27500 |
| O=C(Nc1ccn([C@@H]2O[C@H](CO)[C@@H](O)C2(F)F)c(=O)n1)OCc1ccccc1 | 2690 |

* * *

assayOverview: Plasma pharmacokinetics in vivo
testContext: SD, rat, plasma, 15 mg/kg; after dFdC intravenous injection, rats, 12 h

| substanceSmiles | concentration at 12 h |
| --- | --- |
| Nc1ccn([C@@H]2O[C@H](CO)[C@@H](O)C2(F)F)c(=O)n1 | ~200 ng/mL |

* * *

assayOverview: Plasma pharmacokinetics in vivo
testContext: SD, rat, iv; plasma, after i.v. dFdC 15 mg/kg, rats
propertyMeasured: AUC(0-inf) (ng·h/mL)

| substanceSmiles | dataValue |
| --- | --- |
| Nc1ccn([C@@H]2O[C@H](CO)[C@@H](O)C2(F)F)c(=O)n1 | 22700 |

* * *

assayOverview: Plasma pharmacokinetics in vivo
testContext: SD, rat, po; plasma analyte after i.g. Cbz-dFdC 22 mg/kg, rats
Overview of recorded half-life for various molecules

| molecule | half-life |
| --- | --- |
| O=C(Nc1ccn([C@@H]2O[C@H](CO)[C@@H](O)C2(F)F)c(=O)n1)OCc1ccccc1 [Cbz-dFdC, 4-N-carbobenzoxy-gemcitabine] | 9.91 h |
| Nc1ccn([C@@H]2O[C@H](CO)[C@@H](O)C2(F)F)c(=O)n1 [dFdC, Gemcitabine] | 10.4 h |

* * *

assayOverview: Enzymatic kinetics in vitro, rat kidney homogenate
Assay type: in vitro ADME
testContext: SD, 37 °C, 30 min, 5–200 μM Cbz-dFdC, read-out: Clint, disappearance of Cbz-dFdC

| substanceSmiles | unitsSymbol | microsomal CLint |
| --- | --- | --- |
| O=C(Nc1ccn([C@@H]2O[C@H](CO)[C@@H](O)C2(F)F)c(=O)n1)OCc1ccccc1 | µL/min/mg | 1100 |

Just for reference, paper PMC7248705 is where these values come from.
